Test system: siRNA
ASSAY NOTES: SPR analysis of peptide binding to immobilized siRNA
TEST SETTINGS: peptide with sHGP-9r (19:1 molar ratios), 10, 5, 2.5 and 1.25 μM, biotinylated siRNA on streptavidin chip, 25°C
MEASURE: binding affinity for siRNA (in words)

>>> experimental_result("CRKRLDRNCggRRRRARRRR [I4R-9r(A1), I4R-9r variant with one arginine of 9r replaced by alanine]")
"moderate affinity"
>>> experimental_result("CRKRLDRNCggRRARRRARR [I4R-9r(A2), I4R-9r variant with two alanine substitutions]")
"lowest affinity"
>>> experimental_result("CRKRLDRNCggRRARRRRRR [I4R-9r(A1*), I4R-9r variant with one arginine of 9r replaced by alanine, other position]")
"moderate affinity"
>>> experimental_result("CRKRLDRNCggRARRARRAR [I4R-9r(A3), I4R-9r variant with three alanine substitutions]")
"lowest affinity"
